System: Influenza A virus
Experiment: Inhibition of plaque formation
Type: functional, organism-based
experimental readout: IC50 (µg/mL)
I only need the number, in µg/mL, no unit after it.

[
  {
    "chem smiles": "CC(=O)N[C@@H]1[C@@H](NC(=N)N)C=C(C(=O)O)O[C@H]1C(F)(F)[C@H](O)CO.O=C(O)C(F)(F)F",
    "unit of measurement": "µg/mL",
    "IC50": 0.4
  }
]

Bench note: what IC50 did "CC(=O)N[C@H]1[C@H]([C@H](F)[C@H](O)CO)OC(C(=O)O)=C[C@@H]1NC(=N)N.O=C(O)C(F)(F)F" show?
0.0018

IC50 lookup needed for "CC(=O)N[C@@H]1[C@@H](N=C(N)N)C=C(C(=O)O)O[C@H]1C[C@H](O)CO.O=C(O)C(F)(F)F" , thanks.
0.01

Which IC50 reading was recorded for the molecule "CC(=O)N[C@H]1[C@H]([C@H](N)[C@H](O)CO)OC(C(=O)O)=C[C@@H]1NC(=N)N.O=C(O)C(F)(F)F" ?
0.02
